Target: T1, HA-GCN4 hAPRIL (amino acid residues 105-250) (human, UniProt O75888 105-250)
T1 construct: Bought (R&D Systems); also called HA-tagged GCN4 human APRIL; HA-GCN4-huAPRIL; not shown: N-terminal HA tag; GCN4 isoleucine zipper oligomerization domain
T1 sequence: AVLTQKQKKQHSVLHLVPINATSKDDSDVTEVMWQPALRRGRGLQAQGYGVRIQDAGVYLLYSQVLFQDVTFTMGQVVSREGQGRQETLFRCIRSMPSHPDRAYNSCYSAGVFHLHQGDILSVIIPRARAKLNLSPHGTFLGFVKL
Assay: indirect ELISA on human APRIL; column head prints IC50 (pM), legend paragraph 725 calls the values EC50
metric.name: EC50 (nM)

binder	metric.name	val
monoclonal antibody 3631 (antibody, V domains shown, mouse-derived) VH: EIQLQQSGPELVKPGASVKVSCKASGYSFTDYNIYWVKQSHGKSLEWIGYIDPSNGGPGYNQKFRGKATLTVDKSSSTAFLHLNSLTSEDSAVYYCARRDNYGSGTMDYWGQGTSVTVSS VL: DIVMTQSQKFMSTSVGDRVSITCKASQNVGTDVSWYQQKPGKSPKPLIYWASNRFTGVPDRFIGSGSGTDFTLTISNVQSEDLADYFCEQYSIYPLTFGAGTKLELK	EC50	0.0166
4237 (antibody, V domains shown, also called monoclonal antibody 4237) VH: QAHLKESGPGLVAPSQSLSITCTVSGFSLTDYDVHWVRQSPGKGLEWLGVIWNDGSTDYNTAFISRLTISKDNSKSQVFFKMNSLQADDTAIYYCARNWYGGYWFAYWGQGTLVTVSA VL: DIQMTQSPASLSASAGETVTITCRSSENIYSYLAWYQQKQGKSPQLLVYNANALAEGVPSRFSGSGSVTQFSLKINSLQPEDFGSYYCQHHYGTPFTFGSGTKLEIK	EC50	0.0126
monoclonal antibody 3530 (antibody, mouse IgG2, V domains shown) VH: QVQLQQSGAELVRPGASVKLSCKASGYTFTDHEMHWVRQTPVHGLEWIGVIDPDTGDTTYNQKFKGKATLTADKSSSTAYMDLRSLTSEDSAVFYCTRWTGGDYWGHGTTLTVSS VL: DAVMTQTPLSLSVTIGQPASISCKSSQSLLYSDGKTYLNWFQQRPGQSPKRLMYQVSKLDPGIPDRFSGSGSETDFTLKISRVEAEDLGVYYCLQGTYYPYTFGSGTKLEIK	EC50	0.0489
